# Assay explanation: stability studies in bacterial culture medium
# Assay type: physicochemical
# Condition details: 48 h period
Recorded endpoint: stability in bacterial culture medium

[
  {
    "Chemical string": "O=C(Cc1cccc(F)c1)NO",
    "Recorded endpoint": "stability in bacterial culture medium",
    "Result": "hydrolytic instability"
  },
  {
    "Chemical string": "O=C(Cc1ccccc1)NO",
    "Recorded endpoint": "stability in bacterial culture medium",
    "Result": "hydrolytic instability"
  }
]
